Record form. Attribute: Relative activity (%). Fill in for each entry.
Target: T1, hCD112R mFC recombinant protein (human; murine, UniProt Q6DKI7 41-160)
T1 construct: range 41-160; expressed in 293E cells; also called hCD112R ECD mFC; hCD112R-ECD-mFC; not shown: murine IgG2a Fc domain (MX2-mFc vector)
T1 sequence (looked up): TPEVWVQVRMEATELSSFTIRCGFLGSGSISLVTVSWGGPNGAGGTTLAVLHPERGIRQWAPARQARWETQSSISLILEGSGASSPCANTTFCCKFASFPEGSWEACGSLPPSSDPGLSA
Assay: FACS competition, hCD112R mFc on CHO CD112 cells; IC50 COM701/IC50 antibody
The reply should contain only the number, in %.

**Query** Name the recorded Relative activity (%) of the binder listed here: Hu17 (antibody, IgG4, V domains shown, humanized IgG4) VH: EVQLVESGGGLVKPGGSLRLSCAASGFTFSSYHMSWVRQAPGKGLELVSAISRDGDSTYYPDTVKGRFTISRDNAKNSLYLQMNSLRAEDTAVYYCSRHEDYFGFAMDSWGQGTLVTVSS VL: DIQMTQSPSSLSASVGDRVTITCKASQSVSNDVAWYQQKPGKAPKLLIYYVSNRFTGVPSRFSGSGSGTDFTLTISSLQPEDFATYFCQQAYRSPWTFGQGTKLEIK
**Result** 169

**Query** Name the recorded Relative activity (%) of the binder listed here: Hu15 (antibody, IgG4, V domains shown, humanized IgG4) VH: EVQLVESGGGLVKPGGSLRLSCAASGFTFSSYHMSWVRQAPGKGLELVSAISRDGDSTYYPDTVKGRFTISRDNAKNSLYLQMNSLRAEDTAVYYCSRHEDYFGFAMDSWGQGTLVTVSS VL: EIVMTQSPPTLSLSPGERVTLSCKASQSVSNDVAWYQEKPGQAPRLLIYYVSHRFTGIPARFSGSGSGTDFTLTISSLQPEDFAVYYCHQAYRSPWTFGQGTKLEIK
**Result** 109

**Query** Name the recorded Relative activity (%) of the binder listed here: Hu1 (antibody, IgG4, V domains shown, humanized IgG4; also called Hu-01) VH: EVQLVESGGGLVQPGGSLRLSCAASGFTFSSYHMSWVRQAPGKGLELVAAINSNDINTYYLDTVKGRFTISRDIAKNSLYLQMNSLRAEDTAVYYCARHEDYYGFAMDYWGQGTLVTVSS VL: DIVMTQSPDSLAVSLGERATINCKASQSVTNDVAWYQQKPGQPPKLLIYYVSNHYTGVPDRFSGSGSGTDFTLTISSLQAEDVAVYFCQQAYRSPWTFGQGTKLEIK
**Result** 92.2

Data provenance: patent US20240309087A1
